- testName: Serum stability in rat serum at 37° C.
- Type: in vitro ADME
- conditionsUsed: mono-exponential fit
experimentalReadout: Serum τ1/2 (h) rat
Give just the numeric value; h need not be written.

Please fill in: Serum τ1/2 (h) rat reported for C124A/A143M: RLuc mutant C124A/A143M (protein) MASKVYDPEQRKRMITGPQWWARCKQMNVLDSFINYYDSEKHAENAVIFLHGNAASSYLWRHVVPHIEPVARCIIPDLIGMGKSGKSGNGSYRLLDHYKYLTAWFELLNLPKKIIFVGHDWGAALAFHYSYEHQDKIKAIVHMESVVDVIESWDEWPDIEEDIALIKSEEGEKMVLENNFFVETMLPSKIMRKLEPEEFAAYLEPFKEKGEVRRPTLSWPREIPLVKGGKPDVVQIVRNYNAYLRASDDLPKMFIESDPGFFSNAIVEGAKKFPNTEFVKVKGLHFSQEDAPDEMGKYIKSFVERVLKNEQ = 29
